All values here come from patent US5478946A.

# test_target: Type II NOS (RAW macrophage cell cytosol) (Mus musculus)
# Construct: cytosolic preparations from RAW 264.7 cells; endogenous in cells; host or cells: RAW 264.7 cells, LPS-induced for 16 hours
# experiment_description: [3H]-Arginine to [3H]-Citrulline conversion, RAW cell cytosol (Type II NOS)
# Type: biochemical, murine
# assay_conditions: 100 μM, LPS induced, read-out: Percent Inhibition of [3H]-Citrulline Formation, RAW Cell Cytosol
// reported inhibition at 100 µM for each item listed
observed_property: inhibition at 100 µM (%)

compound="N=C(N)NC/C(=C/[C@H](N)CO)Cc1ccccc1 [Example 25]" observed_property="inhibition at 100 µM" experimental_value=20
compound="CCNC(=N)NC/C=C/[C@H](N)CO [Example 12]" observed_property="inhibition at 100 µM" experimental_value=8
compound="N=C(NC/C=C/[C@H](N)CO)N[N+](=O)[O-] [Example 2]" observed_property="inhibition at 100 µM" experimental_value=14
compound="CC(C)(C)OC(=O)N1[C@@H](/C=C/CNC(=N)NO)COC1(C)C [Example 7]" observed_property="inhibition at 100 µM" experimental_value=17
compound="CNC(=N)NC/C=C/[C@@H](CO)NC(=O)OC(C)(C)C [Example 17]" observed_property="inhibition at 100 µM" experimental_value=6

====

# test_target: Type III NOS (BAE homogenate preparation) (Bos taurus)
# Construct: partially purified isozyme III from bovine aortic endothelial cells (BAE cells); endogenous in cells
# experiment_description: [3H]-Arginine to [3H]-Citrulline conversion, BAE homogenate preparation (Type III NOS)
# assay_conditions: read-out: Inhibition of [3H]-Citrulline Formation IC50, BAE Preparation
# Text: The enzyme NO synthase produces EDRF/NO and citrulline from L-arginine (Bredt and Snyder, Proc. Nat'l. Acad. Sci. USA, 1989, 87: 682-5). The enzymatic generation of EDRF/NO is monitored by measuring the conversion of [^3 H]-L-arginine to [^3 H]-L-citrulline. An inhibitor of this specific enzymatic reaction lowers the conversion rate and, thus, the amount of [^3 H]-L-citrulline produced. Likewise, a compound acting as a substrate would compete with L-arginine and thereby lower the conversion rate. […]
Listed compounds paired with reported IC50
observed_property: IC50

chem_smiles=CCNC(=N)NC/C=C/[C@H](N)CO test_target="Type III NOS (BAE homogenate preparation) (Bos taurus)" experimental_value="> 100 µM"
chem_smiles=N=C(NN)NC/C=C/[C@H](N)CO test_target="Type III NOS (BAE homogenate preparation) (Bos taurus)" experimental_value="> 30 µM"
chem_smiles=CNC(=N)NC/C=C/[C@@H](N)CO test_target="Type III NOS (BAE homogenate preparation) (Bos taurus)" experimental_value="> 100 µM"
chem_smiles=CC(C)(C)OC(=O)N1[C@@H](/C=C/CNC(=N)N[N+](=O)[O-])COC1(C)C test_target="Type III NOS (BAE homogenate preparation) (Bos taurus)" experimental_value="> 100 µM"
chem_smiles=C/C(=C\[C@H](N)CO)CNC(=N)N test_target="Type III NOS (BAE homogenate preparation) (Bos taurus)" experimental_value="100 µM"
chem_smiles=N=C(NC/C=C/[C@H](N)CO)N[N+](=O)[O-] test_target="Type III NOS (BAE homogenate preparation) (Bos taurus)" experimental_value="80 µM"
chem_smiles=CC(C)(C)OC(=O)N1[C@@H](/C=C/CNC(=N)N)COC1(C)C test_target="Type III NOS (BAE homogenate preparation) (Bos taurus)" experimental_value="> 100 µM"
chem_smiles=C/C(=C\[C@H]1COC(C)(C)N1C(=O)OC(C)(C)C)CNC(=N)N[N+](=O)[O-] test_target="Type III NOS (BAE homogenate preparation) (Bos taurus)" experimental_value="> 100 µM"
chem_smiles=CC(C)(C)OC(=O)N1[C@H](/C=C/CNC(=N)N)COC1(C)C test_target="Type III NOS (BAE homogenate preparation) (Bos taurus)" experimental_value="100 µM"
chem_smiles=CNC(=N)NC/C=C/[C@H](N)CO test_target="Type III NOS (BAE homogenate preparation) (Bos taurus)" experimental_value="> 100 µM"
